# STUDY TARGET: T1, biotinylated dimeric human CD48 protein expressed as a fusion with mouse IgG2a Fc (human, biotinylated)
# T1 construct: also called bio-hCD48-mFc; Dimeric human CD48-mFc
# T1 chain: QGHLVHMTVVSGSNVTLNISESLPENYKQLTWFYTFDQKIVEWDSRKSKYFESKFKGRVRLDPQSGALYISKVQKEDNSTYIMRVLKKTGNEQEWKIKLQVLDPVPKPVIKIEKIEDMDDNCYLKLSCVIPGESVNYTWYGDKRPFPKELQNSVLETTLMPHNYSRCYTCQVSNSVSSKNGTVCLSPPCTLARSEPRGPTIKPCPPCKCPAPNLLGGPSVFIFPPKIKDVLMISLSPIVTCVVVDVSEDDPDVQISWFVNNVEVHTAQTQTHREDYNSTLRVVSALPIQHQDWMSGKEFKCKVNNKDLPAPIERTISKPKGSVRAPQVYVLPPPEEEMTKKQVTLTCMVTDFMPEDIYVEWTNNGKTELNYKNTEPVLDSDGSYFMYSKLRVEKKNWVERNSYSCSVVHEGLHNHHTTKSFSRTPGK
# ASSAY METHOD TEXT: competition ELISA; blocks bio-hCD48-mFc binding to coated h2B4-mFc
ASSAY ENDPOINT: IC50 (nM)

BINDER: H2M1763N (antibody, mouse IgG2, V domains shown, Human variable domains, mouse IgG2 Fc (H2M)) VH: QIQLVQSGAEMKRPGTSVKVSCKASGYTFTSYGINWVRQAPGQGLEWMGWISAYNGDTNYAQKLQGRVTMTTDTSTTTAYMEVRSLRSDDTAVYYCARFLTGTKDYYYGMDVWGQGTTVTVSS VL: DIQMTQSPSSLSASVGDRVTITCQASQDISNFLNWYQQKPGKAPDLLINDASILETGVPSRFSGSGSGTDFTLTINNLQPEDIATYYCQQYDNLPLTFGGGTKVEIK
ASSAY ENDPOINT: IC50
OBS VALUE: 0.0055

BINDER: H2M1707N (antibody, V domains shown, Human variable domains, mouse IgG2 Fc (H2M)) VH: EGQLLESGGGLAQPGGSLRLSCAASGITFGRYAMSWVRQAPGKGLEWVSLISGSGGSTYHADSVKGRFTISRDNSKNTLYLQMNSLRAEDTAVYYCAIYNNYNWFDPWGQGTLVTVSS VL: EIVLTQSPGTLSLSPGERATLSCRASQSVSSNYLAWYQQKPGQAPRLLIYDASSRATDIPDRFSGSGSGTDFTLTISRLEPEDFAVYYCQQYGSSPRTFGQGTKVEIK
ASSAY ENDPOINT: IC50
OBS VALUE: 0.0086

BINDER: H4H1775P (antibody, human IgG4, V domains shown, Human IgG4 Fc (H4H)) VH: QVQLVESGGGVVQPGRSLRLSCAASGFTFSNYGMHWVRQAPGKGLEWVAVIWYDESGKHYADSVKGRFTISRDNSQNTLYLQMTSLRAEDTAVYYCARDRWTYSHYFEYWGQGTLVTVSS VL: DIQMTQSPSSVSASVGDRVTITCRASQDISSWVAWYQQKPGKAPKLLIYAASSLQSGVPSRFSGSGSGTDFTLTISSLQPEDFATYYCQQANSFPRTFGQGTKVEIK
ASSAY ENDPOINT: IC50
OBS VALUE: 0.044

BINDER: H2M1710N (antibody, mouse IgG2, V domains shown, Human variable domains, mouse IgG2 Fc (H2M)) VH: QVQLVQSGADMKKPGASVRVSCKASGYTFTDYFIHWVRQAPGQGPEWMGWINPDSGATNYAQQFQGRVTMTRDTSISATYMEMSRLRSDDTAVFYCARDKDGSGWYLDDWGQGTLVTVSS VL: EIVLTQSPATLSLSPGERATLSCRASQSVNIYLAWYQQKPGQAPRLLIYDASNRASGIPARFSGSGSGTDFTLTISSLEPEDFAVYYCQQRSNWPPSITFGQGTRLEIK
ASSAY ENDPOINT: IC50
OBS VALUE: 0.49

BINDER: H4H1770P (antibody, human IgG4, V domains shown, Human IgG4 Fc (H4H)) VH: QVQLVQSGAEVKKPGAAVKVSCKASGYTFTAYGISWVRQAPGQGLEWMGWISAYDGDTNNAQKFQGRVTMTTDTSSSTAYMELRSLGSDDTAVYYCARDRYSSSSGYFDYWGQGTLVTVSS VL: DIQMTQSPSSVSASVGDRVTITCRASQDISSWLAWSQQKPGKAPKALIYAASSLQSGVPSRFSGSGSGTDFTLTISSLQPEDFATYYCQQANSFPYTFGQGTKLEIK
ASSAY ENDPOINT: IC50
OBS VALUE: 0.02

BINDER: H4H1778P (antibody, human IgG4, V domains shown, Human IgG4 Fc (H4H)) VH: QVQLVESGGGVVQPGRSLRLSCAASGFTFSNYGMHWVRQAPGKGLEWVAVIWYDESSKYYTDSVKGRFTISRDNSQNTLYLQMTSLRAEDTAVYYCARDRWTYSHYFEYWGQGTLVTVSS VL: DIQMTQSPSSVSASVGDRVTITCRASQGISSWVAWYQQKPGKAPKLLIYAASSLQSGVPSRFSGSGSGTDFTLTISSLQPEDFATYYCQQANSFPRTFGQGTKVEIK
ASSAY ENDPOINT: IC50
OBS VALUE: 0.056

BINDER: H4H1774P (antibody, human IgG4, V domains shown, Human IgG4 Fc (H4H)) VH: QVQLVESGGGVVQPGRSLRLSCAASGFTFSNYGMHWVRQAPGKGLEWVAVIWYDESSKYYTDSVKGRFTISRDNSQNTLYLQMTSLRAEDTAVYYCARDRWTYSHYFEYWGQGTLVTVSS VL: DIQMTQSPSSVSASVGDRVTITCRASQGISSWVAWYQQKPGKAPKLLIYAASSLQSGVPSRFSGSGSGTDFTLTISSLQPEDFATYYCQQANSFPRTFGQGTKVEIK
ASSAY ENDPOINT: IC50
OBS VALUE: 0.025

BINDER: H4H1713N (antibody, human IgG4, V domains shown, Human IgG4 Fc (H4H) form of 1713N) VH: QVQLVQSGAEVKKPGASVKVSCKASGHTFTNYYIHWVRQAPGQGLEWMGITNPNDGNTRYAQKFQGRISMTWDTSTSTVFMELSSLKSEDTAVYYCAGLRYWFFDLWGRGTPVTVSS VL: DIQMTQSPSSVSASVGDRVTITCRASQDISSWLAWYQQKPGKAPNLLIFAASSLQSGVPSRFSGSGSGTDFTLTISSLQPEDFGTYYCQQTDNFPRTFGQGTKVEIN
ASSAY ENDPOINT: IC50
OBS VALUE: 0.018

BINDER: H2M1713N (antibody, mouse IgG2, V domains shown, Human variable domains, mouse IgG2 Fc (H2M)) VH: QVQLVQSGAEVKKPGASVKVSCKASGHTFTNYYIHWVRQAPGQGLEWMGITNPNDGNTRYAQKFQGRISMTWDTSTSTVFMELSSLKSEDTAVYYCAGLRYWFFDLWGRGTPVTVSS VL: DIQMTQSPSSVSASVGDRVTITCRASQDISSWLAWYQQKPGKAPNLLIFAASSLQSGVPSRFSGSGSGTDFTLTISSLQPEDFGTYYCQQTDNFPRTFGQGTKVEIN
ASSAY ENDPOINT: IC50
OBS VALUE: 0.022

BINDER: H4H1763N (antibody, human IgG4, V domains shown, Human IgG4 Fc (H4H) form of 1763N) VH: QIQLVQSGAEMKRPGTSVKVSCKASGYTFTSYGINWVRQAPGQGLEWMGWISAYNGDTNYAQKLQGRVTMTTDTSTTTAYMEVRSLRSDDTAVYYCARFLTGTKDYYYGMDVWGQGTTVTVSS VL: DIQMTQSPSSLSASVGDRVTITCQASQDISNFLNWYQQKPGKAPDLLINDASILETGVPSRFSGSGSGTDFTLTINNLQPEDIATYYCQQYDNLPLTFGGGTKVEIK
ASSAY ENDPOINT: IC50
OBS VALUE: 0.0074
